system: HT-29 cells; assay: HT-29 cell necrosis/necroptosis inhibition (TNF-α + SMAC mimetic + zVAD-FMK; CellTiter-Glo cell viability); type: cell-based; conditions: Homo sapiens, HT-29, 20 h, read-out: EC50 (Cell activity; Necrosis/Necroptosis Inhibitory Activity, Compounds 143-323)
pEC50: −log10 of the molar value.
parameter: pEC50

- compound: "Cc1nc(C(=O)N2CCC2)nn1-c1nc(N2CCN(C(=O)N3N=CC[C@H]3c3cc(F)cc(C#N)c3)CC2)ncc1F [Compound 247]"
  value.observed: "7.00 to 10.00"
- compound: "Cc1ncc(C#N)n1-c1nc(N2CCN(C(=O)N3N=CC[C@H]3c3cc(F)cc(C#N)c3)CC2)ncc1F [Compound 148]"
  value.observed: "7.00 to 10.00"

Now take the following compound into account.
What does the data say about its pEC50? Entry: CC(=O)N1Cc2c(-c3nc(N4CCN(C(=O)N5N=CC[C@H]5c5cc(F)cc(C#N)c5)CC4)ncc3F)nn(C)c2C1 [Compound 152]
5.00 to 6.00
